# ASSAY_DETAILS: solubility of crystalline forms in organic solvents
# Assay type: physicochemical
# RECORDED_CONDITIONS: organic solvents: dichloromethane, dimethylsulfoxide, organic solvent or mixture; moderate solubility; 25° C.; DCM, DMSO, THF

{"MOLECULE": "COc1ccc(CN2C3CC2CN(c2ccc(-c4cc(OCC(C)(C)O)cn5ncc(C#N)c45)cn2)C3)cn1 [Form A]", "solubility": "3 to 30 mg/mL"}
